- subject_of_test: α3β4 nAChR (Rattus norvegicus, UniProt P04757+P12392)
- Sequence (P04757 26-499): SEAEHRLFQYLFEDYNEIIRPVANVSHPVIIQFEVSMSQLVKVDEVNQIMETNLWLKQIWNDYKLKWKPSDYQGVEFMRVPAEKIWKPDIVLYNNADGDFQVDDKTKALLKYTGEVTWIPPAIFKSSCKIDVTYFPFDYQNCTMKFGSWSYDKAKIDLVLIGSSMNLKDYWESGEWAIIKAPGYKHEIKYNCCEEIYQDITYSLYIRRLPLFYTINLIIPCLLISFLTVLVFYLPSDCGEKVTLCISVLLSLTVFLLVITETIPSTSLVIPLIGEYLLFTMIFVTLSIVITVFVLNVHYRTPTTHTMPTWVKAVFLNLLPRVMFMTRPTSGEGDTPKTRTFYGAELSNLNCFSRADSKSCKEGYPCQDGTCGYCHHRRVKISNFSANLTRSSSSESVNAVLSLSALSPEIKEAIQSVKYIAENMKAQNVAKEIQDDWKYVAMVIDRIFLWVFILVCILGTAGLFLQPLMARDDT
- Sequence (P12392 21-495): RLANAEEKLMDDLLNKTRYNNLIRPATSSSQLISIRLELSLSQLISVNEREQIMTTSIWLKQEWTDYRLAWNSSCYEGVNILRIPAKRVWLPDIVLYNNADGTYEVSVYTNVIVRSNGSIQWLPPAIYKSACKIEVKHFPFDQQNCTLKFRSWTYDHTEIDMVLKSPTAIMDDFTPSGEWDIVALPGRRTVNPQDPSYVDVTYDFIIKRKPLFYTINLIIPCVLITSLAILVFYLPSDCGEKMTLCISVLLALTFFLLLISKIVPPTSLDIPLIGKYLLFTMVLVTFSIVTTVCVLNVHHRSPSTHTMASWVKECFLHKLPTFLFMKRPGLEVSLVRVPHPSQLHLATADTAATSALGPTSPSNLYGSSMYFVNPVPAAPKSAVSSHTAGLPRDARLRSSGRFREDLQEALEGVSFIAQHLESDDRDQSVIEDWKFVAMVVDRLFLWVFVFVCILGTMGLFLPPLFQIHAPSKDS
- experimental_protocol: Nicotine-stimulated 86Rb+ efflux assay, KXα3β4R2 cell line
- Type: cell-based
- Set-up: host or cells: HEK293 (KXα3β4R2)
- study_conditions: IC50, nicotine-stimulated 86Rb+ efflux, α3β4 nAChR
measure_name: pIC50
Scale note: pIC50 = -log10(concentration in M).

Briefly, pIC50 measured for COc1ccc(CCNCCCC(C#N)(c2ccc(OC)c(OC)c2)C(C)C)cc1OC (centres unmarked) : 5.68

Briefly, pIC50 measured for COc1ccc2c(c1)[C@]13CCCC[C@@H]1[C@H](C2)N(C)CC3 : 5.00
